Listed here are compounds together with their documented TGI.
# Test system: HT29 colon
# experimentNotes: NCI tumour cell line growth inhibition, 48 h

Consider the following illustrative entries.
* COC(=O)c1nc(NN)[nH]c(=O)c1CCCCCc1c(C(=O)OC)[nH]c(NN)cc1=O | > 100 µM
* CC1(C)N=C(N)N=C(N)N1c1ccc(CCc2ccccc2)c(Cl)c1 | 12.7 µM
* Cn1cc(C2=C(c3cn(C)c4ccc(N)cc34)C(=O)NC2=O)c2ccccc21 | > 25 µM
* CC[C@H](C)[C@H](NC(=O)c1cnccn1)C(=O)N(C)[C@H](C[C@@H](OC(C)=O)c1nc(C(=O)N[C@@H](Cc2ccccc2)C[C@H](C)C(=O)OC)cs1)C(C)C | 6.75 µM
* CCOc1ccc(N=Nc2ccc3cc(/C(C)=N/NC(=O)/C(C#N)=C\c4ccc(N(CCC#N)CCC#N)cc4)c(=O)oc3c2)cc1 | > 10 µM
* CCOC(=O)Cn1nnc2cc(Nc3c(C)[n+]([O-])c4cc(F)c(OCC)cc4[n+]3[O-])ccc21 | > 100 µM
* CC(C)=CCC12Cc3ccc(O)cc3C(C(C)CN1)C2C (stereo not given) | > 100 µM
* C/C(=N/N(C=O)C[n+]1ccccc1)C(CN(CC(C)C)CC(C)C)C(=O)Nc1ccc(C)cc1C (stereo not given) | > 100 µM
* O=C(c1ccccc1)c1c(CC(O)c2cccnc2)n(C(=O)c2ccccc2)c2ccccc12 (stereo not given) | 35.6 µM

Field: next compound
Prompt: Return reported TGI; argument: O=C(C(=O)c1ccc(Cc2ccc(C(=O)C(=O)c3ccccc3)cc2)cc1)c1ccccc1
Response: > 100 µM

---

# System: SK-MEL-2 melanoma
# experimentNotes: NCI tumour cell line growth inhibition, 48 h; in the data active means GI50 below about 0.43 µM; inactive means the rest
The reply should name one outcome from active, inactive

Sample answers from the record:
- COC(=O)C1=C(OC(=O)c2ccc(Cl)cc2)C(C(=O)OC)[C@@]2(O)[C@@H](C(=O)OC)C(c3ccccc3C(F)(F)F)C[C@@H]1[C@@H]2C(=O)OC (stereo partly specified): inactive
- COc1cc2cc(Oc3ccc(NC(=O)c4cccc(C(F)(F)F)c4)cc3)c(C)nc2cc1OC: inactive
- Nc1cc(N)c2nc(-c3ccccc3)c(Oc3ccc(F)cc3)nc2c1: inactive

Prompt: Given Cc1ccc(C(=O)Nc2ccc(CN3CCN(C)CC3)c(C(F)(F)F)c2)cc1C#Cc1cnc(N)c2ccc(F)cc12 , state the outcome it received in this test.
Response: active

Prompt: How about CCN1CCN(Cc2ccc(NC(=O)Nc3ccc(-n4ccc5c(NC(=O)c6ccccc6)nccc54)cc3)cc2C(F)(F)F)CC1 ?
Response: inactive

---

Documented TGI across a set of compounds
# System: PC-3 prostate
# experimentNotes: NCI tumour cell line growth inhibition, 48 h

• CC(=O)OCC(=O)O[C@@H]1[C@H]2[C@@H](OC(=O)c3ccccc3)[C@@H](C)C[C@]2(O)[C@H](OC(C)=O)[C@@]2(C)C[C@]1(OC(C)=O)C[C@H]1C(=O)C(C)(C)[C@@H](OC(C)=O)[C@@H]12 = > 25 µM
• CC1(C)CCC(C)(C)c2cc(C(=O)Nc3ccc(C(=O)O)cc3)ccc21 = 51.7 µM
• CC1(C)N=C(N)N=C(N)N1c1cccc(OCc2cccc(N)c2)c1 = > 100 µM
• COc1ccc(Cl)cc1Nc1nc(C(F)(F)F)ccc1C(=O)NN = > 100 µM
• Cc1cccc(NC(=O)c2sc3nc4c(cc3c2N)CCCC4)c1C = > 100 µM

Prompt: // query TGI value for entry CC(=O)N(C)c1ccc(Nc2ccnc3ccc4nn(C)nc4c23)cc1
Response: > 100 µM

Prompt: CC1(C)N=C(N)N=C(N)N1c1ccc(CCc2ccccc2)c(Cl)c1 , same question.
Response: 12.1 µM

Prompt: Queued: O=C1CS/C(=N/N=C/c2cn(Cc3ccc(Cl)cc3Cl)c3ccccc23)N1
Response: 76.8 µM

Prompt: And for Cn1nc2c(c1N)Cc1c(nn(C)c1N)-c1ccccc1-2 ?
Response: > 100 µM

Prompt: Moving on to CCN(CC)c1ccc(NC(=S)NN(C)C)cc1
Response: > 10 µM

---

# Test system: HT29 colon
# experimentNotes: NCI tumour cell line growth inhibition, 48 h
TGI values by entry

// below: answered molecules
• N#C/C(=C\c1cccc(Br)c1)c1nc2ccccc2c(=O)[nH]1 = > 100 µM
• CS(=O)(=O)c1ccc(Cl)c([N+](=O)[O-])c1 = 17 µM
• Cc1cc2c(cc1C)NC1=C(N2)OC(c2c[nH]c3ccc(COc4ccccc4)cc23)C1=O (stereo unspecified) = > 100 µM
• COc1cc(-c2csc(NC(=O)c3cc(C(F)(F)F)cc(C(F)(F)F)c3)n2)cc(OC)c1OC = > 100 µM
• O=C(Nc1ccc(OC(F)(F)F)cc1)c1sccc1NCc1ccnc2ccccc12 = > 100 µM
• O=C(CCc1nc(=S)[nH][nH]1)NC12CC3CC(CC(C3)C1)C2 = > 100 µM
• CNC(=S)NNc1ncnc2c1c(-c1ccc(Cl)cc1)cn2-c1ccc(C)cc1 = 29.8 µM
• Cc1cc(O)c2c(c1)C(O)(c1ccc3c(c1O)C(=O)c1c(O)cc(C)cc1C3(O)C1OC(CO)C(O)C(O)C1O)c1cccc(O)c1C2=O (stereo unspecified) = 38.4 µM

Prompt: Fill blank: measured TGI of the molecule Cc1nc2c(n1CC(C)(C)C)C(=O)c1ccccc1C2=O is ____.
Response: > 100 µM

Prompt: Now try CC12CC3(C)CC(C)(C1)CC(N=[N+]=[N-])(C2)C3 .
Response: > 100 µM

Prompt: Do the same for COc1cc2c3c(cc(Cl)nc3c1OC)C(=O)C(=O)N2 please
Response: 41.4 µM

Prompt: Follow-up entry: CC(C)N(C(=O)C12C3C4C1C1C2C3C41C(O)C(C)(C)C)C(C)C (stereo unspecified)
Response: > 50 µM

Prompt: What do you have for Nc1nc2c(ncn2Cc2ccccc2CCO)c(=O)[nH]1 ?
Response: > 100 µM

---

# Tested on: HOP-18 NSCLC
# experimentNotes: NCI tumour cell line growth inhibition, 48 h
Entries and their measured TGI follow.

The following compounds have reported results that may help.
* CCc1ccccc1NC(=O)C(=O)C(C(=O)c1ccc(OC)cc1)c1ccc(OC)cc1 (stereo not drawn) | > 100 µM
* COC(=O)c1ccc2c(c1)C(NC(C)=O)CCc1cc(OC)c(OC)c(OC)c1-2 (stereo not drawn) | > 100 µM
* CSc1ccc(/C=C2\CNC/C(=C\c3ccc(SC)cc3)C2=O)cc1 | > 371 µM
* O=C(CCc1nc(=S)[nH][nH]1)NC12CC3CC(CC(C3)C1)C2 | > 100 µM
* c1c(N2CCOCC2)ssc1=[N+]1CCOCC1 | > 100 µM
* COC1/C=C/OC2(C)Oc3c(C)c(O)c4c(c3C2=O)C(=O)C=C(NC(=O)/C(C)=C\C=C\C(C)C(OC=O)C(C)C(O)C(C)C(OC(C)=O)C1C)C4=O (stereo not drawn) | 15.8 µM

Prompt: Item under review: Cc1cc(Cl)ccc1NC(=O)C(=O)Cc1nc2ccc(C(=O)c3ccccc3)cc2[nH]c1=O . Reported TGI?
Response: > 100 µM

Prompt: Then what about the compound CC1(C)C(=O)C(O)=CC2C1=CCC1C2(C)C(=O)CC2(C)C(C(C)(O)C(=O)CC(O)C(C)(C)O)C(O)CC12C (stereo not drawn) ?
Response: 12.3 µM

---

# Tested on: KM12 colon
# experimentNotes: NCI tumour cell line growth inhibition, 48 h
# maps each entry to its TGI

// known answers, use as guide
• N#CC(C#N)SCc1ccccc1 = > 100 µM
• O=[N+]([O-])/C(Cl)=C(/C(Cl)=C(Cl)Cl)N1CCCCC1 = 27.6 µM
• O=c1nc(-c2ccccc2)c2c3c(cccn13)CCC2 = > 100 µM
• CCOC(=O)/C=C(/C=C\COC1CCCCO1)c1ccccc1 (configuration not stated) = 79.3 µM
• COC(=O)C1=CCON(c2ccccc2)C1c1ccccc1 (configuration not stated) = > 100 µM

API: the following record is the query input.
Prompt: Name the recorded TGI for CCOc1ccc(NCC2CC/C(=C\C=C\c3ccccc3)C2=O)cc1 (configuration not stated) .
Response: 20.1 µM

---

Listed below: TGI values for each entry.
# Tested on: MALME-3M melanoma
# experimentNotes: NCI tumour cell line growth inhibition, 48 h
Report as a plain number; the unit µM is understood.

* COc1cc2c3cc1Oc1c(OC)c(OC)cc4c1C(Cc1ccc(O)c(c1)Oc1ccc(cc1)CC3N(C)CC2)CN(C)C4 (configuration not stated) | 30.9
* CSc1ccc(C2=Nn3c(nnc3-c3ccc(F)c(Cl)c3)SC2)cc1 | 10.9
* CN(C)CCCNc1cc(O)c2c(c1O)C(=O)c1ccccc1C2=O | 50.2
* Cc1cc(O)c2c(c1)C(O)(c1ccc3c(c1O)C(=O)c1c(O)cc(C)cc1C3(O)C1OC(CO)C(O)C(O)C1O)c1cccc(O)c1C2=O (configuration not stated) | 25.5
* C=C(C)[C@H]1CC(=O)/C(C)=C\CC/C(C)=C/CC[C@@]2(C)O[C@@H]2C1 | 88.7

Here is the next item to consider.
Prompt: TGI lookup needed for O=C(O)C1=NN(c2ccc(S(=O)(=O)O)cc2)C2(C1)C(Cl)C(=O)N2c1nc2ccccc2s1 (configuration not stated) , thanks.
Response: 38.7

The measured values listed here are drawn from PubChem BioAssay (NCI).
